Values were extracted from patent US20200223906A1.

I'd appreciate it if you could supply Kd values for the items below.
target or test system: T1, RSV F subtype A, furin-cleaved ectodomain stabilized in the prefusion conformation (DS-Cav1) (Respiratory syncytial virus subtype A, UniProt P03420 26-524)
T1 construct: extracellular domain; Trimeric soluble antigen; also called Prefusion subtype A
run description: BLI, IgG on AHQ sensor, 100 nM antigen
Return type: number; implicit unit nM.

Enquiry: Give the reported value of Kd for this record: ADI-18974 (antibody, V domains shown, full-length IgG from yeast) VH: QVQLVQSGPEVKKPGASVRVSCEASGYPFSNYGITWVRQAPGQGLEWMGWISAYNGNRDYLQKFQGRLTMTIDTSTRTAHMELRRLTSDDTAVYWCARDTPATAAPLLDYWGQGTLVTVSS VL: DIVMTQSPLSLAVTLGQPASISCRSSQSLEFTDGNTYLNWFQQRPGQSPRRLIYKVSNRDSGVPDRFSGSGSGTGFTLKISRVEAEDVGVYYCMQGIFRPGTFGQGTKVEIK
Return: 0.253

Enquiry: Give the reported value of Kd for this record: ADI-18937 (antibody, V domains shown, full-length IgG from yeast; also called Antibody Number 290; Ab # 290) VH: QVQLQESGPGLVKPSQTLSLTCTVSGPSISAGDYNWNWIRQAPGKGLEWVGYIDYRGLTHYNPSLKGRLSILMDRSANQFSLELNSVTAADTAVYYCARDVGVYSGYDVFHYYGMDVWGQGTTVTVSS VL: ETTLTQSPVTLSLSPGERATLSCRASQYVRNNYLAWYQHKPGQAPRLLIYSASSRVTGTPDRFSGSGSGTDFTLTISRLEPEDFAVYYCQQYGGSPPVTFGPGTKVDIK
Return: 0.289

Enquiry: Give the reported value of Kd for this record: ADI-18936 (antibody, V domains shown, full-length IgG from yeast) VH: EVQLLESGAEVKKPGASVRVSCKASGYTFTDYFMNWVRQAPGGGLEWMGWVNPLSGATKYAQKFQGRVTMTTDTSITTGYLDLRSLRVDDTAIYFCASQSSPYTPGAMGVWGQGTTVTVSS VL: DIQVTQSPSSLSASVGDRVTITCRASQSISGYLSWYQQKPGKAPNLLIYATSNLYSGVPSRFSGRDSGTDFTLTITSLQPEDFATYFCQLNSGALFTFGPGTKVEIK
Return: 0.303
